# credit: patent US9115093B2

biological target: neutrophil elastase (Homo sapiens, UniProt P08246); assay: Human Neutrophil Elastase Assay; type: biochemical; design: purchased Calbiochem 324681; conditions: substrate MeOSuc-Ala-Ala-Pro-Val-AMC, pH 7.5, room temperature
readout-name: pIC50
pIC50 (log units): -log10 of the concentration in mol/L.

// field: pIC50; key: Cn1nccc1CN1C(=O)N(c2cccc(C(F)(F)F)c2)C2=C(C(=O)CCC2)C1c1ccc(C#N)cc1 (stereo not shown) ; value = 8.18

Others:
# pIC50 of N#Cc1ccc(C2C3=C(CCCC3=O)N(c3cccc(C(F)(F)F)c3)C(=O)N2S(=O)(=O)C=Cc2ccccc2)cc1 (stereo not shown) = 6.97

The compound CC(=O)N1CCN(C(=O)CN2C(=O)N(c3cccc(C(F)(F)F)c3)C3=C(C(=O)CCC3)C2c2ccc(C#N)cc2)CC1 (stereo not shown) showed pIC50 equal to 8.43

* * *

Biological target: neutrophil elastase (Homo sapiens)
Sequence (P08246 30-247 limits assumed): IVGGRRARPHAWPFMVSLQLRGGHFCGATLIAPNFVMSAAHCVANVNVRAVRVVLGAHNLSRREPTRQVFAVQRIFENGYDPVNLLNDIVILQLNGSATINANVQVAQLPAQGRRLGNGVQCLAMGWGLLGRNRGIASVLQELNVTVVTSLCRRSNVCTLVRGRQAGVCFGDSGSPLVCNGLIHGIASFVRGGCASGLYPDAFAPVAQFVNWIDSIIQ
Assay: Human Neutrophil Elastase Assay
Conditions: substrate MeOSuc-Ala-Ala-Pro-Val-AMC, pH 7.5, room temperature
Protocol: Human Neutrophil Elastase Assay Materials: Human neutrophil elastase was purchased from Calbiochem (Cat.No.: 324681) and the elastase substrate MeOSuc-Ala-Ala-Pro-Val-AMC from Bachem (Cat.No.: I-1270). […] Assay conditions: Test compounds were prediluted in DMSO and subsequently in compound buffer (5% DMSO final). […] After inactivation of the enzyme, fluorescence intensities were measured at 380 nm excitation and 460 nm emission wavelengths. […]
# maps each entry to its pIC50
Please note pIC50 is a logarithmic value: minus log10 of concentration in mol/L. Answer with that number alone.

Consider the worked cases shown below.
Record N#Cc1ccc(C2C3=C(CCCC3=O)N(c3cccc(C(F)(F)F)c3)C(=O)N2CC(=O)O)cc1 (stereo not drawn) [Example 32] . Reported pIC50: 7.92

Memo: CN1C(=O)CCC1CNC(=O)CN1C(=O)N(c2cccc(C(F)(F)F)c2)C2=C(C(=O)CCC2)C1c1ccc(C#N)cc1 (stereo not drawn) [Example 36.57] , reported pIC50: 7.98

For record N#Cc1ccc(C2C3=C(CCCC3=O)N(c3cccc(C(F)(F)F)c3)C(=O)N2S(=O)(=O)CCCC(=O)O)cc1 (stereo not drawn) [Example 45] the listed pIC50 is 8.47

Next:
Measured pIC50 of N#Cc1ccc(C2C3=C(CCCC3=O)N(c3cccc(C(F)(F)F)c3)C(=O)N2CC(=O)NCc2ccc(=O)[nH]c2)cc1 (stereo not drawn) [Example 36.52] : 7.93

Record summary for CS(=O)(=O)CCN1C(=O)N(c2cccc(C(F)(F)F)c2)C2=C(C(=O)CCC2)C1c1ccc(C#N)cc1 (stereo not drawn) [Example 30] : reported pIC50 = 8.40

Record N#Cc1ccc(C2C3=C(CCCC3=O)N(c3cccc(C(F)(F)F)c3)C(=O)N2CC(=O)NCC2CCCO2)cc1 (stereo not drawn) [Example 36.24] , field pIC50: 8.00

// pIC50 value for N#Cc1ccc(C2C3=C(CCCC3=O)N(c3cccc(C(F)(F)F)c3)C(=O)N2S(=O)(=O)c2ccccc2C#N)cc1 (stereo not drawn) [Example 44.11] : 7.94
